Target: T1, TNFR1 (Homo sapiens, UniProt P19438)
T1 chain: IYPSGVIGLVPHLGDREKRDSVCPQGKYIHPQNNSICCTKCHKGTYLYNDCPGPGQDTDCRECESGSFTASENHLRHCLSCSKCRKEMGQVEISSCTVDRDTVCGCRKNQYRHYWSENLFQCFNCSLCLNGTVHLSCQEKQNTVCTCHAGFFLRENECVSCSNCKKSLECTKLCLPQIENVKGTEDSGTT
Assay: yeast display SC50
Assay readout: apparent Kd (screen) (nM)

[1] W70M (designed binder) MTLQELLREEALRRAEAEAFRYALELLAEKFPEQKEYLLDLAEEIESQIRSLSGVDVEDVRKFLDKEWAMVKELLAEHPAELAEVEAARAARLAELRAEVEAKVAA
[2] S51V (designed binder) MTLQELLREEALRRAEAEAFRYALELLAEKFPEQKEYLLDLAEEIESQIRVLSGVDVEDVRKFLDKEWAWVKELLAEHPAELAEVEAARAARLAELRAEVEAKVAA
Input line: Which is greater in apparent Kd (screen), the first item 1 or the second item 2 ? // return label of chosen record
Output line: 1
(1: 13.8 nM, 2: 2.05 nM)
